Reference source: ChEMBL document CHEMBL1145800

pKi, UniProtKB P32245, per-entry values.
Sequence (P32245 whole entry): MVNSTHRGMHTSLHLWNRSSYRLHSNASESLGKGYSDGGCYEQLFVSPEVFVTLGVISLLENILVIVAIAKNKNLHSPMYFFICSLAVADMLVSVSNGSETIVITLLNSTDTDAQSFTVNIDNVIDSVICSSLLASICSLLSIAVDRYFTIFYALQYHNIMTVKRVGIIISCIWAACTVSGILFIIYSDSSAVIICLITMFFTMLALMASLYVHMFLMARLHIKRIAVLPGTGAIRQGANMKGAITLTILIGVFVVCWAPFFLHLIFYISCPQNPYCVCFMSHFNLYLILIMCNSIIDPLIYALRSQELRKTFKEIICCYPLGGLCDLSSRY
pKi here: minus log base 10 of the concentration, concentration in moles per litre.

NCCCCCC(=O)N(Cc1ccc2ccccc2c1)Cc1cccc2ccccc12
5.70

Note: attention shifts to another entry.
UniProtKB P32245 / pKi / `NCCCNC(=O)[C@H](CNCc1c[nH]c2ccccc12)NCc1ccc2ccccc2c1` : value?
4.60
